system: C. glabrata ATCC 2001 (strain H); assay: MIC determination (broth microdilution); format: cell-based, Candida glabrata; settings: strain H = C. glabrata ATCC 2001; MIC-0; 48 h at 35° C.
Please provide measured MIC (in parentheses) for the entries that follow.
Dear colleague, please return just the value in µM, with no unit written.

Bench note, C. glabrata ATCC 2001 (strain H): CC1CCC(C)[P+]1([Au-][Cl])c1ccccc1[P+]1([Au-][Cl])C(C)CCC1C (stereo not drawn) [Compound 5] , MIC (in parentheses) reads 20.2

Bench note, C. glabrata ATCC 2001 (strain H): C[C@@H]1[C@H](O)[C@@H](C)/C=C/C=C/C=C/C=C/C=C/C=C/C=C/[C@H](O[C@@H]2O[C@H](C)[C@@H](O)[C@H](N)[C@@H]2O)C[C@@H]2O[C@](O)(C[C@@H](O)C[C@@H](O)[C@H](O)CC[C@@H](O)C[C@@H](O)CC(=O)O[C@H]1C)C[C@H](O)[C@H]2C(=O)O [AmB, amphotericin B, reference compound] , MIC (in parentheses) reads 4.2

Bench note, C. glabrata ATCC 2001 (strain H): [Cl-].c1ccc([P+]2(c3ccccc3)c3ccccc3[P+](c3ccccc3)(c3ccccc3)[Au-3]23[P+](c2ccccc2)(c2ccccc2)c2ccccc2[P+]3(c2ccccc2)c2ccccc2)cc1 , MIC (in parentheses) reads 6.9

Bench note, C. glabrata ATCC 2001 (strain H): [Cl][Au-][P+](c1ccccc1)(c1ccccc1)c1ccccc1[P+]([Au-][Cl])(c1ccccc1)c1ccccc1 , MIC (in parentheses) reads 8.6
